- SYSTEM_UNDER_TEST: Nuclear receptor subfamily 1 group I member 2 (Homo sapiens)
- PROTOCOL_TEXT: Human pregnane X receptor (PXR) small molecule agonists, qHTS assay (AID 1346982); further: nearly all actives have a fitted effect of over 35% in size; further: potency means the concentration at half of the fitted maximal effect
- STUDY_CONDITIONS: PXR-Luc HepG2, CYP3A4 luciferase reporter, 24 h; series mostly up to 92.4 µM
Records with an inconclusive call do not appear. Calls of active or inactive are those of the source. The call rests on the fitted dose curve; in most records, active means well fitted activation curve with a large enough effect in the repeat runs; inconclusive means weak or mixed curves; inactive means no such curve, though single readings can be large or run the other way.
QUANTITY_NAME: Potency

C=CC(=C)C: inactive
C=CCOC(=O)c1ccccc1N: inactive
CC(C)C(Nc1ccc(C(F)(F)F)cc1Cl)C(=O)OC(C#N)c1cccc(Oc2ccccc2)c1 (centres undefined): 13.8 µM (active)
Cc1ccccc1OP(=O)(Oc1ccccc1C)Oc1ccccc1C: 27.4 µM (active)
CC1CN1 (centres undefined): inactive
CC(C)Br: inactive
CC(=O)[O][Pb]([c]1ccccc1)([c]1ccccc1)[c]1ccccc1: inactive
CCCCc1ccccc1: inactive

Report Potency for `CCc1cccc(C)c1N(C(=O)CCl)[C@@H](C)COC` tested on Nuclear receptor subfamily 1 group I member 2 (Homo sapiens).
7.7 µM (active)

Report Potency for `O=[N+]([O-])c1ccccc1-c1ccccc1` tested on Nuclear receptor subfamily 1 group I member 2 (Homo sapiens).
inactive

Report Potency for `CCOP(=O)(Sc1ccccc1)Sc1ccccc1` tested on Nuclear receptor subfamily 1 group I member 2 (Homo sapiens).
34.4 µM (active)

Report Potency for `CCOC(=O)Cc1ccccc1` tested on Nuclear receptor subfamily 1 group I member 2 (Homo sapiens).
inactive

Report Potency for `O=[N+]([O-])C(Br)Br` tested on Nuclear receptor subfamily 1 group I member 2 (Homo sapiens).
inactive

Report Potency for `CC(C)(C)c1ccc(OP(=O)(Oc2ccccc2)Oc2ccccc2)cc1` tested on Nuclear receptor subfamily 1 group I member 2 (Homo sapiens).
13.8 µM (active)

Report Potency for `CCN(CC)CCc1c[nH]c2ccccc12` tested on Nuclear receptor subfamily 1 group I member 2 (Homo sapiens).
inactive

Report Potency for `COc1ccc2[nH]cc(CCN(C(C)C)C(C)C)c2c1` tested on Nuclear receptor subfamily 1 group I member 2 (Homo sapiens).
inactive

Report Potency for `CC[C@]1(O)CC[C@H]2[C@@H]3CCC4=CCCC[C@@H]4[C@H]3CC[C@@]21C` tested on Nuclear receptor subfamily 1 group I member 2 (Homo sapiens).
23.7 µM (active)

Report Potency for OCC(Br)CBr (centres undefined) tested on Nuclear receptor subfamily 1 group I member 2 (Homo sapiens).
inactive

----------
- PROTOCOL_TEXT: qHTS assay to identify small molecule agonists of the TGF-beta/Smad signaling pathway (AID 1346859)
- STUDY_CONDITIONS: SBE-bla HEK293T, TGF-beta/Smad beta-lactamase reporter, 5 h; series mostly up to 76.8 µM
Results filed as inconclusive are left out. The source made the active and inactive calls. The call rests on the fitted dose curve; in most records, active means well fitted activation curve with a large enough effect in the signal ratio in the repeat runs (not every such curve was filed as active); inconclusive means weak or mixed curves; inactive means flat fitted curve, though single readings scatter; the % refers to the signal ratio.
QUANTITY_NAME: activation

Answered examples (8):
CCN(CC)CCN1C(=O)CN=C(c2ccccc2F)c2cc(Cl)ccc21: inactive
CCN(CC)C(=O)N[C@@H]1C=C2c3cccc4[nH]cc(c34)C[C@@H]2N(C)C1: inactive
O.O.O.O.O.O.O.O=S(=O)([O-])[O-].[Co+2]: inactive
COc1ccc2[nH]cc(CCN(C(C)C)C(C)C)c2c1: inactive
CCCCN(CCCC)C(=S)S: inactive
CO/N=C(\C(=O)OC)c1ccccc1CO/N=C(\C)c1cccc(C(F)(F)F)c1: inactive
COc1nc(C)nc(NC(=O)NS(=O)(=O)c2ccccc2Cl)n1: inactive
O=C(N[C@H]1N=C(c2ccccc2F)c2cccc3c2N(CC3)C1=O)c1cc2ccccc2[nH]1: inactive

Could you share which activation value was measured for CC(Cc1ccccc1)N(C)Cc1ccco1 (stereo unspecified) ?
inactive

Could you share which activation value was measured for `[Cl-].[Cl-].[Sn+2]` ?
inactive

Could you share which activation value was measured for `CC(C)Br` ?
inactive

Could you share which activation value was measured for `O=C(O)CCCCCCNC1c2ccccc2CCc2ccccc21` ?
inactive

Could you share which activation value was measured for `COc1c2c(cc3c1OCO3)CCN(C)C2` ?
inactive

Could you share which activation value was measured for `O=[N+]([O-])c1ccc(CCl)cc1` ?
inactive

Could you share which activation value was measured for `CCCCn1cc[n+](C)c1.[Cl][Fe-]([Cl])([Cl])[Cl]` ?
inactive

Could you share which activation value was measured for `Cc1cc2c3c(c1)C(c1ccccc1)=N[C@@H](NC(=O)c1ccncc1)C(=O)N3CC2` ?
inactive

Could you share which activation value was measured for `N#CCCl` ?
inactive

Could you share which activation value was measured for `Cc1ccccc1OP(=O)(Oc1ccccc1C)Oc1ccccc1C` ?
inactive

Could you share which activation value was measured for FC(F)C(F)(F)OCC(Cn1cncn1)c1ccc(Cl)cc1Cl (stereo unspecified) ?
inactive

Could you share which activation value was measured for CCn1cc[n+](C)c1 (tested in a mixture with another compound) ?
inactive

Could you share which activation value was measured for `CN(C)C(=S)SSC(=S)N(C)C` ?
inactive

Could you share which activation value was measured for `O=C(NC(=O)c1ccccc1Cl)Nc1ccc(OC(F)(F)F)cc1` ?
inactive

Could you share which activation value was measured for `C=CCBr` ?
inactive

Could you share which activation value was measured for CC1(C)C(C=C(Cl)Cl)C1C(=O)OC(C#N)c1ccc(F)c(Oc2ccccc2)c1 (stereo unspecified) ?
inactive

Could you share which activation value was measured for `Clc1cc(Cl)c(-c2cc(Cl)c(Cl)cc2Cl)cc1Cl` ?
inactive

Could you share which activation value was measured for `Oc1ccc(Cl)c(Cl)c1` ?
inactive
